B1: TPD52L2 (parent)
chain: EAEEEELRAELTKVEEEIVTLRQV

- Variants of: B1
- assayText: protein stability index of a GFP-peptide fusion (GPS, HEK-293T) (PSI 1-6); higher = more stable;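 further: lentivirally expressed fusions sorted by FACS into six bins by GFP to DsRed ratio, PSI derived from sequencing read proportions per bin multiplied by bin number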
- experimentalParameters: c terminus: a fixed tail appended
Assign YES to entries whose protein stability index meets or exceeds 4; assign NO to the rest.

In [3]: df
Out[3]:
    variantdesignation  categorylabel
 0                 E3I             NO
 1                I18P            YES
 2                V19N            YES
 3                V14Q            YES
 4                V14N            YES
 5                 E4T             NO
 6                T12F             NO
 7                E16G            YES
 8                I18C            YES
 9                 R8A            YES
10                E17D            YES
11                T20R             NO
12                T12G            YES
13                E10T             NO
14                 L7R            YES
15                E15M             NO
16                 A2T             NO
